Measured IC50, listed per entry for reference.
assayed-target: JAK2 (recombinant purified GST-tagged catalytic domain) (Homo sapiens (Human))
run-description: biochemical
measurement-name: IC50 (nM)

N#C[C@H]1CCCC[C@@H]1n1cc(C(N)=O)c(Nc2ccc(S(=O)(=O)NC3CCCCC3)cc2)n1 (single isomer, unassigned) ... 1
CC(=O)O[C@H]1C[C@H](C#N)[C@@H](n2cc(C(N)=O)c(Nc3ccc(C(F)(F)F)cc3)n2)C[C@@H]1O ... 184
N#C[C@@H]1C[C@@H](NCC2CCC2)CC[C@H]1n1cc(C(N)=O)c(Nc2ccc(C(F)(F)F)cc2)n1 (single isomer, unassigned) ... 242

----------
Measured log10 of IC50, listed per entry for reference.
assayed-target: JAK2 (recombinant purified GST-tagged catalytic domain) (Homo sapiens (Human), UniProt O60674)
Sequence (O60674 849-1124): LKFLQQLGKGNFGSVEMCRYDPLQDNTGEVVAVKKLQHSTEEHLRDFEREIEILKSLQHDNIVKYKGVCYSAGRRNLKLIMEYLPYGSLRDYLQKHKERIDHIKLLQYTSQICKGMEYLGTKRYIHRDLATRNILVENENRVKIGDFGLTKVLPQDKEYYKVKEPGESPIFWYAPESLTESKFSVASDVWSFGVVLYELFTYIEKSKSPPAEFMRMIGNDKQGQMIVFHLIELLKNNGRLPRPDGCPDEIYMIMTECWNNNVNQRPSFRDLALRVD
run-description: biochemical
measurement-name: log10 of IC50 (log10 of the value in nM)

N#C[C@@H]1C[C@@H](NC2CCC2)CC[C@H]1n1cc(C(N)=O)c(Nc2ccc(C(F)(F)F)cc2)n1 (single isomer, unassigned) ... 2.13
N#C[C@H]1CCCC[C@@H]1n1cc(C(N)=O)c(Nc2cnc3ccc(F)cc3c2)n1 (single isomer, unassigned) ... 1.15
COCCN(C)[C@H]1CC[C@H](n2cc(C(N)=O)c(Nc3ccc(S(=O)(=O)C(F)(F)F)cc3)n2)[C@@H](C#N)C1 (single isomer, unassigned) ... 1.23
N#C[C@H]1C[C@@H](NCC(F)F)CC[C@@H]1n1cc(C(N)=O)c(Nc2ccc(S(=O)(=O)C(F)(F)F)cc2)n1 (single isomer, unassigned) ... 0.60
N#C[C@@H]1CCCC[C@H]1n1cc(C(N)=O)c(Nc2ccc(S(=O)(=O)C(F)F)cc2)n1 (single isomer, unassigned) [Example 43-5] ... 1.45

----------
Measured IC50, listed per entry for reference.
assayed-target: JAK1 (recombinant purified GST-tagged catalytic domain) (Homo sapiens (Human), UniProt P23458);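 also: biochemical assay with HTRF read-out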
Sequence (P23458 875-1153): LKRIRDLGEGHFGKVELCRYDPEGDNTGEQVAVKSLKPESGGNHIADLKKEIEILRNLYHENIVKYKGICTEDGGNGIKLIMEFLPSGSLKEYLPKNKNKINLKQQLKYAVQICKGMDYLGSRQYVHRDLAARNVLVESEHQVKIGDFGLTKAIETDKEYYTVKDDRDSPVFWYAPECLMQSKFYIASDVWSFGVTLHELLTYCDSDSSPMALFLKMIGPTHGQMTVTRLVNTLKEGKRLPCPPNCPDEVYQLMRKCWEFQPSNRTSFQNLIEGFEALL
run-description: biochemical
measurement-name: IC50 (nM)

N#Cc1ccc(Nc2nn([C@H]3CC[C@H](NCC(F)F)C[C@@H]3C#N)cc2C(N)=O)cc1 (single isomer, unassigned) ... 1
N#C[C@@H]1C[C@H](C(=O)N2CC3(COC3)C2)CC[C@H]1n1cc(C(N)=O)c(Nc2ccc(Cl)cc2)n1 (single isomer, unassigned) ... 10
CN(C)[C@@H]1CC[C@H](n2cc(C(N)=O)c(Nc3ccc(Cl)cc3)n2)[C@@H](C#N)C1 (single isomer, unassigned) ... 2
CN[C@H]1CC[C@H](n2cc(C(N)=O)c(Nc3ccc(Cl)cc3)n2)[C@@H](C#N)C1 (single isomer, unassigned) ... 0.7
N#C[C@H]1CCCC[C@@H]1n1cc(C(N)=O)c(Nc2ccc(C(F)(F)F)cc2)n1 (single isomer, unassigned) ... 2
N#C[C@H]1C[C@H](N2CCC2)CC[C@@H]1n1cc(C(N)=O)c(Nc2ccc(C(F)(F)F)cc2)n1 (single isomer, unassigned) ... 0.9

----------
assayed-target: JAK2 (recombinant purified GST-tagged catalytic domain) (Homo sapiens (Human))
run-description: biochemical
measurement-name: IC50

N#C[C@H]1CCCC[C@@H]1n1cc(C(N)=O)c(Nc2ccc(S(=O)(=O)NCCN3CCCC3)cc2)n1 (single isomer, unassigned) ... 2 nM
N#C[C@H]1CCCC[C@@H]1n1cc(C(N)=O)c(Nc2ccc(S(=O)(=O)NCc3ccc(C(F)(F)F)cc3)cc2)n1 (single isomer, unassigned) ... 7 nM
CS(=O)(=O)N[C@H]1CC[C@H](n2cc(C(N)=O)c(Nc3ccc(Cl)cc3)n2)[C@@H](C#N)C1 (racemic) ... 5 nM
CS(=O)(=O)c1ccc(Nc2nn([C@H]3CC[C@H](N4CC5(CCC5)C4)C[C@@H]3C#N)cc2C(N)=O)cc1 (single isomer, unassigned) ... 5 nM
N#C[C@@H]1C[C@H](C(=O)NCC(F)(F)F)CCC1n1cc(C(N)=O)c(Nc2ccc(Cl)cc2)n1 (single isomer, unassigned) ... 38 nM
CN(C)[C@H]1CC[C@H](n2cc(C(N)=O)c(Nc3ccccc3)n2)[C@@H](C#N)C1 (single isomer, unassigned) ... 32 nM
CC1(N[C@H]2CCC(n3cc(C(N)=O)c(Nc4ccc(Cl)cc4)n3)[C@@H](C#N)C2)COC1 (single isomer, unassigned) ... 22 nM
N#C[C@@H]1C[C@H](C(=O)NC2CC2)CC[C@H]1n1cc(C(N)=O)c(Nc2ccc(Cl)cc2)n1 (single isomer, unassigned) ... 23 nM
N#C[C@H]1C[C@@H](O)CC[C@@H]1n1cc(C(N)=O)c(Nc2ccc([C@H](O)C(F)(F)F)cc2)n1 (single isomer, unassigned) ... 2 nM
CC(C)(CO)N[C@H]1CCC(n2cc(C(N)=O)c(Nc3ccc(Cl)cc3)n2)[C@@H](C#N)C1 (single isomer, unassigned) ... 41 nM
N#C[C@H]1CC(N(C2CC2)C2CC2)CC[C@@H]1n1cc(C(N)=O)c(Nc2ccc(S(=O)(=O)C(F)(F)F)cc2)n1 (single isomer, unassigned) ... 16 nM

----------
assayed-target: JAK2 (recombinant purified GST-tagged catalytic domain) (Homo sapiens (Human));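 also: biochemical JAK kinase assay with HTRF detection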
run-description: biochemical
Reported IC50 maps to class as: range A = under 7 nM, range B = from 7 nM up to 60 nM, range C = 60 nM and over

CN[C@H]1CC[C@H](n2cc(C(N)=O)c(Nc3ccc(Cl)cc3)n2)[C@@H](C#N)C1 (single isomer, unassigned) [Example 28-40] ... range B
N#C[C@@H]1C[C@H](C(=O)NC(C2CC2)C2CC2)CC[C@H]1n1cc(C(N)=O)c(Nc2ccc(Cl)cc2)n1 (single isomer, unassigned) [Example 35-5] ... range C
N#Cc1ccc(Nc2nn([C@H]3CC[C@H](O)C[C@@H]3C#N)cc2C(N)=O)cc1 (single isomer, unassigned) [Example 33-6] ... range A
N#C[C@H]1C[C@H](OCC2CC2)CC[C@@H]1n1cc(C(N)=O)c(Nc2ccnc(F)c2)n1 (single isomer, unassigned) [Example 26-1] ... range B
N#C[C@H]1C[C@@H](NCC2CC2)CC[C@@H]1n1cc(C(N)=O)c(Nc2ccc(C(F)(F)F)cc2)n1 (single isomer, unassigned) [Example 28-10] ... range C
N#C[C@H]1C[C@@H](C(=O)NC2CC2)CC[C@@H]1n1cc(C(N)=O)c(Nc2ccc(Cl)cc2)n1 (single isomer, unassigned) [Example 35-23] ... range C
N#C[C@H]1CCCC[C@@H]1n1cc(C(N)=O)c(Nc2ccc(S(=O)(=O)NCc3ccncc3)cc2)n1 (single isomer, unassigned) [Example 17-86] ... range A
N#C[C@H]1CCCC[C@@H]1n1cc(C(N)=O)c(Nc2ccc(S(=O)(=O)N3CCC4(CC3)OCCO4)cc2)n1 (single isomer, unassigned) [Example 17-92] ... range A
CC(C)(C)N[C@@H]1CC[C@H](n2cc(C(N)=O)c(Nc3ccc([C@H](O)C(F)(F)F)cc3)n2)[C@@H](C#N)C1 (single isomer, unassigned) [Example 28-52] ... range B
N#C[C@H]1C[C@@H](N2CCOCC2)CCC1n1cc(C(N)=O)c(Nc2ccc(S(=O)(=O)C(F)(F)F)cc2)n1 (mixture of isomers) [Example 27-13] ... range A
CC(C)(O)[C@H]1CC[C@H](n2cc(C(N)=O)c(Nc3ccc(Cl)cc3)n2)[C@@H](C#N)C1 (single isomer, unassigned) [Example 36-1] ... range A
N#C[C@@H]1CC(CN)CCC1n1cc(C(N)=O)c(Nc2ccc(F)cc2)n1 (mixture of isomers) [Example 9] ... range C
N#C[C@H]1CCCC[C@@H]1n1cc(C(N)=O)c(Nc2ccc(Br)cc2)n1 (single isomer, unassigned) [Example 17-26] ... range B
N#C[C@H]1C[C@H](O)CC[C@@H]1n1cc(C(N)=O)c(Nc2ccc(Cl)nc2)n1 (single isomer, unassigned) [Example 25-12] ... range B
N#C[C@H]1C[C@H](NCC2(O)CC2)CC[C@@H]1n1cc(C(N)=O)c(Nc2ccc(C(F)(F)F)cc2)n1 (single isomer, unassigned) [Example 28-35] ... range B
N#C[C@H]1CCCC[C@@H]1n1cc(C(N)=O)c(Nc2ccc(S(=O)(=O)NCc3ccccc3)cc2)n1 (single isomer, unassigned) [Example 17-83] ... range A
CC(C)(C)OC(=O)N[C@@H]1CC[C@H](C#N)C(n2cc(C(N)=O)c(Nc3ccc(F)cc3)n2)C1 (single isomer, unassigned) [Example 44-2] ... range C
N#C[C@H]1CC[C@@H](O)CC1n1cc(C(N)=O)c(Nc2ccccc2)n1 (mixture of isomers) [Example 2-13] ... range C
CC1(C)CN([C@H]2CC[C@H](n3cc(C(N)=O)c(Nc4ccccc4)n3)[C@@H](C#N)C2)C1 (single isomer, unassigned) [Example 28-138] ... range B
